target: T1, human ROR1 (full-length, on the cell surface) (human, UniProt Q01973 30-937); assay: flow cytometry, HT-29 cells
T1 construct: whole, on cells; the tumour cell lines carry their own ROR1; also called Ba/F3-ROR1 cells; Jeko-1
T1 sequence (Q01973 30-937): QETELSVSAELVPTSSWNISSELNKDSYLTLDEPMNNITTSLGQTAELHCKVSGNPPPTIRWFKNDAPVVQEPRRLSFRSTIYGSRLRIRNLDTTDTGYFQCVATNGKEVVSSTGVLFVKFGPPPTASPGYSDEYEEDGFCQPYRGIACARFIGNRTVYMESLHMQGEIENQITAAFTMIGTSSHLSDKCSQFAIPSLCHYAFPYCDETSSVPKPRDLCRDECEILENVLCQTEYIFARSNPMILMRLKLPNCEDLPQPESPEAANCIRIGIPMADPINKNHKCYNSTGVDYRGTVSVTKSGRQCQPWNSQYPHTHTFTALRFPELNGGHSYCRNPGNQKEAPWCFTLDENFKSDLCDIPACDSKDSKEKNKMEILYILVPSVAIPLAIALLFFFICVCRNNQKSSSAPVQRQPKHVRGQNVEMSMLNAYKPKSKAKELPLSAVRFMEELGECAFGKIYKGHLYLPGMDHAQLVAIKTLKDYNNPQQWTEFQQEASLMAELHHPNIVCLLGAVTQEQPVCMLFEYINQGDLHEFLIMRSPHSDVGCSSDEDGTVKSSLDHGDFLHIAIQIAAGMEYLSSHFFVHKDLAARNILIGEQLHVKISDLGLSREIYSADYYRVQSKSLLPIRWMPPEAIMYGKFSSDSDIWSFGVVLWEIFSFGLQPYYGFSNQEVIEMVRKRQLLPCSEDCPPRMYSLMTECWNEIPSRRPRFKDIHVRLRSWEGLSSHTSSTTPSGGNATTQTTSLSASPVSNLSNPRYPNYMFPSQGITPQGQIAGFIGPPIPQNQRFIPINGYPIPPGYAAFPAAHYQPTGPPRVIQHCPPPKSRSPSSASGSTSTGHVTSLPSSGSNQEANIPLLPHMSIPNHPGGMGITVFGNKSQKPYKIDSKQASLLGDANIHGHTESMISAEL
PARAMETER MEASURED: EC50 (nM)
Your answer should be a plain number; it is taken to be in nM.

{"BINDER": "19F6-Hu21 (antibody, human IgG1, kappa, V domains shown, humanized, human IgG1 / kappa) VH: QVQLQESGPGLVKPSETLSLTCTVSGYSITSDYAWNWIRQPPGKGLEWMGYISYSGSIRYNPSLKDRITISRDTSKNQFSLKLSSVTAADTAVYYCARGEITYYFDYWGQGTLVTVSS VL: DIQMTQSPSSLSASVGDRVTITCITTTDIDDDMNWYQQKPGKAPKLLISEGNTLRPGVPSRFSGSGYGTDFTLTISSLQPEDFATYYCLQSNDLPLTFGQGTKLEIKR", "PARAMETER MEASURED": "EC50", "UNIT ABBREV": "nM", "VAL": 0.18}

Query binder follows.
Prompt: Return reported EC50; argument: 3D8-Hu97 (antibody, human IgG1, kappa, V domains shown, humanized, human IgG1 / kappa) VH: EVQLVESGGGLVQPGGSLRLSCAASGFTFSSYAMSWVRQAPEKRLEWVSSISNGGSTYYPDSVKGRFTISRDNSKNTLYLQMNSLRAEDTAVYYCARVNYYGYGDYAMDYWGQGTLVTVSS VL: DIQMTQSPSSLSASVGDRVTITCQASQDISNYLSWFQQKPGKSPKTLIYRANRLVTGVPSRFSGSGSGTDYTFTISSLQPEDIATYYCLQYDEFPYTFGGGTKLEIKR
Completion: 0.52

// provenance: patent US20240018237A1
